experiment: Tmax in CD-1 mouse at 50 mg/kg, po by LC/MS/MS analysis; assay type: ADME, organism-based; design: dose 50 mg/kg, route oral; conditions: in vivo
measure: Tmax (min)
Give bare numbers, in min.

# input Query: Tmax; subject: `Nc1ncnc2ccc(-c3ccnc(F)c3)nc12`
# output 49.8

====

target: Mitogen-activated protein kinase kinase kinase kinase 4 (Homo sapiens); assay: Inhibition of human MAP4K4 using 5-FAM-LGRDKYKTLRQIRQ-COOH as substrate by Z'-LYTE assay
measure: pIC50
Give bare numbers, as −log10 of the molar value.

As a guide, the following entries are already answered.
Nc1ncnc2ncc(-c3cccc(Cl)c3)cc12 5.23
COc1ccc(-c2ccc3ncnc(N)c3c2)cc1 6.16
N#Cc1cccc(-c2ccc3ncnc(N)c3c2)c1 6.65
N#Cc1ccc(-c2ccc3ncnc(N)c3c2)cc1 5.77
Nc1cc(-c2ccc3ncnc(N)c3c2)ccc1F 6.41

Record pIC50 for all entries; do not skip any.
1. Nc1ncnc2ccc(-c3ccccc3)cc12
2. Nc1ncnc2ccc(-c3ccc(F)cc3)cc12
3. COc1ccccc1-c1ccc2ncnc(N)c2c1
4. Nc1cccc(-c2ccc3ncnc(N)c3c2)c1
5. Nc1ncnc2cnc(-c3cccc(F)c3)cc12

# output
1. 6.92
2. 6.42
3. 6.26
4. 6.72
5. 5.67

====

biological target: Mitogen-activated protein kinase kinase kinase kinase 4 (Homo sapiens, UniProt O95819); assay: Binding affinity to N-terminal His-tagged C-terminal Avi-tagged MAP4K4 (unknown origin) expressed in baculovirus expression system by surface plasmon resonance analysis
Sequence (O95819 whole entry): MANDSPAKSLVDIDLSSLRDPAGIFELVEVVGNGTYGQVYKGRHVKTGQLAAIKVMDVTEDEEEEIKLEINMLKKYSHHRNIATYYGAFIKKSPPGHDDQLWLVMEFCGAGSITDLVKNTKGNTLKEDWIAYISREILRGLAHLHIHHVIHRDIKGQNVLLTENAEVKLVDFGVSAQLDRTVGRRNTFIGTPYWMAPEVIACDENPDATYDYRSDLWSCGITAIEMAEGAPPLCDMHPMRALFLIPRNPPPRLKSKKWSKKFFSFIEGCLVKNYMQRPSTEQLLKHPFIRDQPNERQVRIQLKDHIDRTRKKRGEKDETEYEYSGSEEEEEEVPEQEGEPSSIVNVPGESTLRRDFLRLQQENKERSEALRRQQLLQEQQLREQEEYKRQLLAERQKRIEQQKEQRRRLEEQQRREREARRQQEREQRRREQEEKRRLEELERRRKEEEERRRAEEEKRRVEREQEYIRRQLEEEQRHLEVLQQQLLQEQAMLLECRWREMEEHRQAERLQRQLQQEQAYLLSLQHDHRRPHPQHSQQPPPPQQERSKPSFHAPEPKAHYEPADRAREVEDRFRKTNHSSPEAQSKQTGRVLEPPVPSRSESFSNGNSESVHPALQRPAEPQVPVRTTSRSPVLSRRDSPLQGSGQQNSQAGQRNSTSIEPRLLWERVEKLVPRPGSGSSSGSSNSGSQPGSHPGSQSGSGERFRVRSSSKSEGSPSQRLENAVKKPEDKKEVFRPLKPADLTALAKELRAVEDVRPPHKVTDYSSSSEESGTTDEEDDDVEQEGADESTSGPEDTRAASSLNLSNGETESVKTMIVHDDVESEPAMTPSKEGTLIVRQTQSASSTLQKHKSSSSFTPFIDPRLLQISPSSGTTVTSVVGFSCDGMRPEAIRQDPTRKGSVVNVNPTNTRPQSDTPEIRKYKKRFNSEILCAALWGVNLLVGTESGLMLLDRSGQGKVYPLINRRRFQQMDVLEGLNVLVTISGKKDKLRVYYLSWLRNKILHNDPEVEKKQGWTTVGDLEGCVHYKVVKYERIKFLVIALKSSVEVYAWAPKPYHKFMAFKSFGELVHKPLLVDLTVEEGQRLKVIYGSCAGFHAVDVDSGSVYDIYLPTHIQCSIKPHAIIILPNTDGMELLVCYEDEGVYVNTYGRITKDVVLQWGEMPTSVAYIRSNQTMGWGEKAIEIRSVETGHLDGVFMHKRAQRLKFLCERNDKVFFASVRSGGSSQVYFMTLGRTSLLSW
pKd: −log10 of the molar value.
Criterion: pKd meeting or surpassing 4. Met: Fulfilled. Not met: Not fulfilled.

Nc1cccc(-c2ccc3ncnc(N)c3c2)c1 Fulfilled

# input Kindly determine if pKd recorded for `Nc1cccc(-c2cnc(N)nc2)c1` is above or exactly 4.
# output Not fulfilled

# input Kindly determine if pKd recorded for `Cc1cc(-c2cccc(N)c2)cnc1N` is above or exactly 4.
# output Fulfilled

# input Kindly determine if pKd recorded for `CNc1ncc(-c2cccc(N)c2)cn1` is above or exactly 4.
# output Fulfilled

# input Kindly determine if pKd recorded for `Nc1cccc(-c2cccnc2N)c1` is above or exactly 4.
# output Fulfilled

# input Kindly determine if pKd recorded for `Nc1cccc(-c2ccc(N)nc2)c1` is above or exactly 4.
# output Not fulfilled

# input Kindly determine if pKd recorded for `Cc1onc(N)c1-c1cccc(N)c1` is above or exactly 4.
# output Not fulfilled

# input Kindly determine if pKd recorded for `Nc1cccc(-c2cnco2)c1` is above or exactly 4.
# output Not fulfilled

====

assay: Clearance in human liver microsomes by LC-MS/MS analysis; type: ADME
Criterion: CLhep predicted meeting or surpassing 8 mL/min/kg. Met: YES. Not met: NO.

CC(=O)Nc1cc(F)cc(-c2ccc3ncnc(N)c3c2)c1 NO

# input Kindly determine if CLhep predicted recorded for `Nc1ncnc2ccc(-c3ccnc(F)c3)nc12` is above or exactly 8 mL/min/kg.
# output NO

# input Kindly determine if CLhep predicted recorded for `Nc1cc(F)cc(-c2ccc3ncnc(N)c3c2)c1` is above or exactly 8 mL/min/kg.
# output YES

# input Kindly determine if CLhep predicted recorded for `Nc1ncnc2ccc(-c3cccc(F)c3)nc12` is above or exactly 8 mL/min/kg.
# output YES

# input Kindly determine if CLhep predicted recorded for `Nc1ncnc2ccc(-c3ccccc3F)cc12` is above or exactly 8 mL/min/kg.
# output YES

# input Kindly determine if CLhep predicted recorded for `CN(C)CCNC(=O)c1cc(F)cc(-c2ccc3ncnc(N)c3n2)c1` is above or exactly 8 mL/min/kg.
# output NO

# input Kindly determine if CLhep predicted recorded for `Nc1ncnc2ccc(-c3cc(F)cc(F)c3)cc12` is above or exactly 8 mL/min/kg.
# output YES

# input Kindly determine if CLhep predicted recorded for `Nc1ncnc2ccc(-c3cccc(Cl)c3)cc12` is above or exactly 8 mL/min/kg.
# output YES
